tested on: CAKI-1 renal; assay: NCI tumour cell line growth inhibition, 48 h

- compound: "CC(C)=NN/C(=N\\S(=O)(=O)c1cc(Cl)c(Oc2ccc([N+](=O)[O-])cc2Cl)c(Cl)c1)Nc1ccc(Cl)cc1"
  TGI: "> 100 µM"
- compound: "CCc1nnc2sc(-c3ccc(-c4ccc(Cl)cc4Cl)o3)nn12"
  TGI: "> 100 µM"
- compound: "COC(=O)C1Cc2c([nH]c3ccccc23)-c2[nH]c3ccccc3c2CC(NC(C)=O)C(=O)NCC(=O)N1 (stereo not drawn)"
  TGI: "> 100 µM"

* * *

test system: HOP-92 NSCLC; assay: NCI tumour cell line growth inhibition, 48 h
Readings of TGI for the listed compounds
assay readout: TGI

- compound: "CC(C)=NN/C(=N\\S(=O)(=O)c1cc(Cl)c(Oc2ccc([N+](=O)[O-])cc2Cl)c(Cl)c1)Nc1ccc(Cl)cc1"
  assay readout: "TGI"
  value reported: "> 100 µM"
- compound: "Cc1ccc(S(=O)/C=C(\\NC(=O)OCc2ccccc2)C(F)(F)F)cc1 (stereo not drawn)"
  assay readout: "TGI"
  value reported: "> 100 µM"
- compound: "COc1ccccc1NC(=O)C1=C(C)NC(C)=C(C(=O)Nc2ccccc2OC)C1c1ccc(C(C)C)cc1"
  assay readout: "TGI"
  value reported: "> 100 µM"

* * *

test system: HL-60(TB) leukemia; test: NCI tumour cell line growth inhibition, 48 h
Where a SMILES comes first, the peptide text is derived from it. [ ]: non-standard residue; d: D form. The star is where a group is joined. ξ: configuration not given here. X37 = O=C(OCc1ccccc1)[C@@H]1CCC[C@H]1N*; Fmoc = O=C(OCC1c2ccccc2-c2ccccc21)*; ξW = NC(Cc1c[nH]c2ccccc12)C(=O)O; ξF = NC(Cc1ccccc1)C(=O)O; Boc = CC(C)(C)OC(=O)*; ξK = NCCCCC(N)C(=O)O; ξT = CC(O)C(N)C(=O)O; tBu = CC(C)(C)*
assay readout: TGI

- molecule: "CCCCc1ccc(N2C(=O)c3cc(C)cnc3S2(=O)=O)cc1"
  value reported: "> 100 µM"
- molecule: "NC12c3c4cccc3Oc3cccc(c31)Oc1cccc(c12)O4"
  value reported: "> 50 µM"
- molecule: "CCN1C(=O)N(c2c(F)c(OC)cc(OC)c2F)Cc2cnc3[nH]c(CN4CCOCC4)cc3c21"
  value reported: "> 100 µM"
- molecule: "Cc1ccc(S(=O)(=O)OC2CN3CCC2CC3)cc1 (stereo not given)"
  value reported: "> 100 µM"
- molecule: "CC(C)(C)c1ccccc1NS(=O)(=O)c1ccccc1"
  value reported: "> 100 µM"
- molecule: "CC(OC(C)(C)C)C(NC(=O)C(CCCCNC(=O)OC(C)(C)C)NC(=O)C(Cc1c[nH]c2ccccc12)NC(=O)C(Cc1ccccc1)NC(=O)OCC1c2ccccc2-c2ccccc21)C(=O)NC(Cc1ccccc1)C(=O)N[C@@H]1CCC[C@H]1C(=O)OCc1ccccc1 (stereo not given in full) (Fmoc-[ξF][ξW][ξK](Boc)[ξT](tBu)[ξF]-X37)"
  value reported: "> 100 µM"
- molecule: "COC(=O)CCCc1ccc2c(c1)CCC2"
  value reported: "> 100 µM"
- molecule: "Cc1ccc(/C=C2\\CCOC2=O)cc1"
  value reported: "> 100 µM"
- molecule: "O=C(/C=C1\\N=C(c2ccccc2)N(c2ccc3c(c2)Sc2cc(N4C(=O)/C(=C/C(=O)/C=C/c5ccccc5)N=C4c4ccccc4)ccc2N3)C1=O)/C=C/c1ccccc1"
  value reported: "> 100 µM"
- molecule: "CCCCN(CCCC)CC(=O)c1ccc2cc(Cl)c3ccccc3c2c1"
  value reported: "> 100 µM"

* * *

tested on: K-562 leukemia; test: NCI tumour cell line growth inhibition, 48 h
Readings of TGI for the listed compounds

- compound: "CC(=O)OCc1ccc(-c2nc(C#N)c(N)o2)o1"
  TGI: "> 10 µM"
- compound: "COc1cc(O)c(C(=O)/C=C/c2ccc(O)cc2)cc1Oc1ccc(C(=O)/C=C/c2ccc(O)cc2)c(O)c1"
  TGI: "10.7 µM"
- compound: "N#Cc1nn(-c2ccc(Cl)cc2)c(N)c2c(=N)n3nc(-c4ccccc4)cc3nc12"
  TGI: "> 100 µM"
- compound: "C(=N\\NC1=NCCCN1)/c1ccc(-c2cn3cc(/C=N/NC4=NCCCN4)ccc3n2)cc1"
  TGI: "> 84.3 µM"
- compound: "Fc1ccc(Nc2nc(Nc3ccc(-c4nc5ccccc5[nH]4)cc3)nc(N3CCCC3)n2)cc1"
  TGI: "5.35 µM"
- compound: "COc1ccc2c(c1)CC[C@@H]1C2CC[C@]2(C)OC(=O)CCC12 (some centres undefined)"
  TGI: "> 100 µM"
- compound: "CCOC(=O)[C@H]1Nc2ccc(O)cc2C2c3ccccc3CC21 (some centres undefined)"
  TGI: "> 100 µM"
- compound: "NCCOc1ccccn1"
  TGI: "> 100 µM"
- compound: "C#CCNC(Cc1ccccc1)C(=O)O (centres undefined)"
  TGI: "> 100 µM"
- compound: "c1ccc(COc2nc3ccc(C45CC6CC(CC(C6)C4)C5)cc3[nH]2)cc1"
  TGI: "> 100 µM"
- compound: "CN(C)CCn1cc(-c2ccc3c(Nc4ccc(CC(=O)Nc5cccc(F)c5)cc4)ncnc3c2)cn1"
  TGI: "> 10 µM"
- compound: "CCOc1ccc(NC(=O)C2=C(C)NC(C)=C(C(=O)Nc3ccc(OCC)cc3)C2c2ccc([N+](=O)[O-])cc2)cc1"
  TGI: "> 100 µM"
- compound: "CC(C)(C)c1cc(C2COC(=O)COCCOCC(=O)OCCOCCO2)cc(C(C)(C)C)c1O (centres undefined)"
  TGI: "> 100 µM"
- compound: "COc1ccc(-n2c(N)c(C(=O)NCCN3CCOCC3)c3nc4ccccc4nc32)cc1OC"
  TGI: "> 100 µM"

* * *

test system: LOX IMVI melanoma; test: NCI tumour cell line growth inhibition, 48 h

- compound: "COc1ccccc1NC(=O)C1=C(C)NC(C)=C(C(=O)Nc2ccccc2OC)C1c1ccc(C(C)C)cc1"
  TGI: "> 100 µM"
- compound: "OC(Cn1cncn1)(Cn1cncn1)c1ccc(Cl)cc1Cl"
  TGI: "> 100 µM"
- compound: "N#Cc1nn(-c2ccc(Cl)cc2)c(N)c2c(=N)n3nc(-c4ccccc4)cc3nc12"
  TGI: "> 37.9 µM"
- compound: "CCOC(=O)c1cc(-c2ccc(OC)c(OC)c2)cn1C"
  TGI: "> 10 µM"
- compound: "O=C(CC1C(=O)Nc2ccccc2S1=O)Nc1cccc(Cl)c1 (stereo unspecified)"
  TGI: "> 100 µM"
- compound: "Cc1ccc(/C=C2\\CCOC2=O)cc1"
  TGI: "> 100 µM"

* * *

system: MOLT-4 leukemia; test: NCI tumour cell line growth inhibition, 48 h

- compound: "Cc1cc(Cl)ccc1NC(=O)C1C(=O)N(c2ccc(Cl)cc2C)C(=O)/C1=N\\N (stereo not given)"
  TGI: "> 100 µM"
- compound: "O=Nc1c(-c2cccc([N+](=O)[O-])c2)nc2ncccn12"
  TGI: "5.31 µM"
- compound: "CC(CN(CP(=O)([O-])[O-])CP(=O)([O-])[O-])N(CP(=O)([O-])[O-])CP(=O)([O-])[O-].N[C@@H]1CCCC[C@@H]1N.[Pt+2] (stereo not given)"
  TGI: "> 100 µM"
- compound: "O=C(/C=C1\\N=C(c2ccccc2)N(c2ccc3c(c2)Sc2cc(N4C(=O)/C(=C/C(=O)/C=C/c5ccccc5)N=C4c4ccccc4)ccc2N3)C1=O)/C=C/c1ccccc1"
  TGI: "> 100 µM"
- compound: "COc1ccccc1NC(=O)C1=C(C)NC(C)=C(C(=O)Nc2ccccc2OC)C1c1ccc(C(C)C)cc1"
  TGI: "> 100 µM"
- compound: "CC1OC(OC2C(CO)OC(O[C@H]3CC[C@@]4(C)C(=CC[C@H]5[C@@H]6C[C@@H]7O[C@](O)(CC[C@@H](C)COC8OC(CO)C(O)C(O)C8O)[C@@H](C)[C@@H]7[C@@]6(C)CC[C@@H]54)C3)C(OC3OC(C)C(O)C(O)C3O)C2O)C(O)C(O)C1O (stereo not given in full)"
  TGI: "3.71 µM"
- compound: "CN(C)/[N+]([O-])=N/Oc1cc(Nc2ccc(C(=O)O)cc2)c([N+](=O)[O-])cc1[N+](=O)[O-]"
  TGI: "> 100 µM"
- compound: "CCCCCOP(=O)(OCCCCC)C(NC(C)=O)(C(=O)OCC)C(F)(F)F (stereo not given)"
  TGI: "> 100 µM"
- compound: "N#Cc1ccc(Nc2nc3nc[nH]c3c(=O)[nH]2)cc1"
  TGI: "> 100 µM"
- compound: "OC1(c2ccc(Cl)cc2)c2ccccc2C2=Nc3ccccc3CN21 (stereo not given)"
  TGI: "> 100 µM"
